- Test system: SH-SY5Y
- test-name: Neuroprotective activity against calcium overload-induced cell death in human SH-SY5Y cells at 0.3 uM in presence of K+ relative to control
- Format: functional
Reported Activity values follow for various compounds
readout-name: Activity (%)

> print(dat)
                                    compound  reading
 1  CCOC(=O)C1=C(C)NC(N)=C(C#N)C1c1ccc(C)cc1 (stereo not given)     40.8
 2  CCOC(=O)C1=C(C)NC(N)=C(C#N)C1c1ccncc1 (stereo not given)     43.3
 3  Cc1ccc(C2C(C#N)=C(N)NC3=C2C(=O)CC(C)(C)C3)cc1 (stereo not given)     44.4
 4  CCOC(=O)C1=C(C)NC(N)=C(C#N)C1c1cccc([N+](=O)[O-])c1 (stereo not given)     30.3
 5  CCOC(=O)C1=C(C)NC(N)=C(C#N)C1c1ccccc1OC (stereo not given)     31.5
 6  CCOC(=O)C1=C(C)NC(N)=C(C#N)C1c1ccc([N+](=O)[O-])cc1 (stereo not given)     45.7
 7  CCOC(=O)C1=C(C)NC(N)=C(C#N)C1c1ccccc1C(F)(F)F (stereo not given)     40.2
 8  CCOC(=O)C1=C(C)NC(N)=C(C#N)C1c1ccccc1[N+](=O)[O-] (stereo not given)     42.6
 9  COCCOC(=O)C1=C(C)NC(C)=C(C(=O)OC(C)C)C1c1cccc([N+](=O)[O-])c1 (stereo not given)     35.9
10  CC1(C)CC(=O)C2=C(C1)NC(N)=C(C#N)C2c1ccc(F)cc1 (stereo not given)     42.3

----------
List of Activity values.
- System: SH-SY5Y
- test-name: Neuroprotective activity against calcium overload-induced cell death in human SH-SY5Y cells at 0.3 uM in presence of K+ relative to control
- Format: functional
readout-name: Activity (%)

> print(dat)
                                    compound  reading
 1  CC1(C)CC(=O)C2=C(C1)NC(N)=C(C#N)C2c1ccncc1 (stereo not given)     39.5
 2  COc1ccc(C2C(C#N)=C(N)NC3=C2C(=O)CC(C)(C)C3)cc1 (stereo not given)     43.2
 3  CCOC(=O)C1=C(C)NC(N)=C(C#N)C1c1ccc(OC)c(OC)c1 (stereo not given)     31.2
 4  CCOC(=O)C1=C(C)NC(N)=C(C#N)C1c1ccc(OC)cc1 (stereo not given)     14.4
 5  CCOC(=O)C1=C(C)NC(N)=C(C#N)C1c1ccc(F)cc1 (stereo not given)     39.8
 6  CC1(C)CC(=O)C2=C(C1)NC(N)=C(C#N)C2c1ccccc1 (stereo not given)     54.7
 7  CCOC(=O)C1=C(C)NC(N)=C(C#N)C1c1cccnc1 (stereo not given)     43.4
 8  CCOC(=O)C1=C(C)NC(N)=C(C#N)C1c1ccccc1 (stereo not given)     34.1
 9  CCOC(=O)C1=C(C)NC(N)=C(C#N)C1c1cccc(OC)c1 (stereo not given)     32.1
10  CCOC(=O)C1=C(C)NC(N)=C(C#N)C1c1ccc(-c2ccccc2)cc1 (stereo not given)     12.9

----------
- Test system: SH-SY5Y
- test-name: Neuroprotective activity against human SH-SY5Y cells assessed as reduction in H2O2-induced LDH release at 0.3 uM relative to control
- Type: functional
- Set-up: scale not given: the % may be the effect or the level left
A collection of compounds and their measured Activity
readout-name: Activity (%)

> print(dat)
                                    compound  readout.name  reading
 1  CC1(C)CC(=O)C2=C(C1)NC(N)=C(C#N)C2c1ccncc1 (stereo unspecified)      Activity     77.7
 2  CCOC(=O)C1=C(C)NC(N)=C(C#N)C1c1cccnc1 (stereo unspecified)      Activity     84.5
 3  CCOC(=O)C1=C(C)NC(N)=C(C#N)C1c1ccc(-c2ccccc2)cc1 (stereo unspecified)      Activity     80.3
 4  CCOC(=O)C1=C(C)NC(N)=C(C#N)C1c1ccccc1[N+](=O)[O-] (stereo unspecified)      Activity     98.8
 5  CCOC(=O)C1=C(C)NC(N)=C(C#N)C1c1ccccc1C(F)(F)F (stereo unspecified)      Activity     78.6
 6  CCOC(=O)C1=C(C)NC(N)=C(C#N)C1c1ccc(C)cc1 (stereo unspecified)      Activity     69.7
 7  CCOC(=O)C1=C(C)NC(N)=C(C#N)C1c1ccc(OC)cc1 (stereo unspecified)      Activity     77.7
 8  CCOC(=O)C1=C(C)NC(N)=C(C#N)C1c1ccc(OC)c(OC)c1 (stereo unspecified)      Activity     70.2
 9  Cc1ccc(C2C(C#N)=C(N)NC3=C2C(=O)CC(C)(C)C3)cc1 (stereo unspecified)      Activity     88.6
10  CCOC(=O)C1=C(C)NC(N)=C(C#N)C1c1ccccc1 (stereo unspecified)      Activity     86.7
11  CCOC(=O)C1=C(C)NC(N)=C(C#N)C1c1cccc([N+](=O)[O-])c1 (stereo unspecified)      Activity     84.5

----------
- Test system: SH-SY5Y
- test-name: Neuroprotective activity against human SH-SY5Y cells assessed as reduction in H2O2-induced LDH release at 0.3 uM relative to control
- Format: functional
- Set-up: scale not given: the % may be the effect or the level left
Items are presented alongside their recorded Activity.
readout-name: Activity (%)

> print(dat)
                                   compound  unit.spec  reading
1  COCCOC(=O)C1=C(C)NC(C)=C(C(=O)OC(C)C)C1c1cccc([N+](=O)[O-])c1 (centres undefined) [NIMODIPINE]          %     75.4
2  CC1(C)CC(=O)C2=C(C1)NC(N)=C(C#N)C2c1ccc(F)cc1 (centres undefined)          %     75.4
3  CCOC(=O)C1=C(C)NC(N)=C(C#N)C1c1ccc([N+](=O)[O-])cc1 (centres undefined)          %     83.4
4  COc1ccc(C2C(C#N)=C(N)NC3=C2C(=O)CC(C)(C)C3)cc1 (centres undefined)          %     77.8
5  CCOC(=O)C1=C(C)NC(N)=C(C#N)C1c1ccc(F)cc1 (centres undefined)          %     82.2
6  CCOC(=O)C1=C(C)NC(N)=C(C#N)C1c1cccc(OC)c1 (centres undefined)          %     86.1
7  CCOC(=O)C1=C(C)NC(N)=C(C#N)C1c1ccncc1 (centres undefined)          %     66.7
8  CCOC(=O)C1=C(C)NC(N)=C(C#N)C1c1ccccc1OC (centres undefined)          %     88.4
9  CC1(C)CC(=O)C2=C(C1)NC(N)=C(C#N)C2c1ccccc1 (centres undefined)          %     84.2
